Assay: Solubility
Assay type: physicochemical
measurement kind: solubility (µM)
Numeric only. Scale: µM

Incoming: Note down solubility recorded for O=S(=O)(/C=C/c1cccc(Cl)c1)Nc1cccc(OCc2cccc(F)c2)c1
Outgoing: 7

Incoming: Note down solubility recorded for COc1cc(NS(=O)(=O)/C=C/c2cccc(Cl)c2)ccc1OCc1cccc(Cl)c1
Outgoing: 8

Incoming: Note down solubility recorded for COc1cccc(/C=C/S(=O)(=O)Nc2cccc(OCc3cccc(Cl)c3)c2)c1
Outgoing: 6

Incoming: Note down solubility recorded for COc1ccc(NS(=O)(=O)/C=C/c2cccc(Cl)c2)cc1OCc1cccc(Cl)c1
Outgoing: 19

Incoming: Note down solubility recorded for O=S(=O)(/C=C/c1cccc(Cl)c1)Nc1ccc(OCc2cccc(Cl)c2)cc1
Outgoing: 6

Incoming: Note down solubility recorded for COc1ccc(NS(=O)(=O)/C=C/c2cccc([N+](=O)[O-])c2)cc1OCc1cccc(Cl)c1
Outgoing: 3
